Test system: smaller brown planthoppers (Loadelphax striatellus)
EXPERIMENT_DESCRIPTION: Residual effect on smaller brown planthoppers (Test Example 11)
Assay type: in vivo
EXPERIMENTAL_CONTEXT: 1000 fold dilute solution of 50 % emulsifiable concentrate; after 4 days (residual effect)
MEASURED_PARAMETER: Mortality after 4 days
Record the result as a number with its unit.

In: State its Mortality after 4 days: Cc1cccc(OC(=O)N(C)[S+]([O-])c2ccccc2)c1 (centres unmarked)
Out: 65.0%

In: # return recorded Mortality after 4 days for input Cc1ccc(OC(=O)N(C)[S+]([O-])c2ccccc2)cc1C (centres unmarked)
Out: 63.3%

In: Supply Mortality after 4 days value. Item: CN(C(=O)Oc1ccc(Cl)cc1)[S+]([O-])c1ccccc1 (centres unmarked)
Out: 75.0%

In: Using the record for Cc1ccc([S+]([O-])N(C)C(=O)Oc2cccc(C)c2C)cc1 (centres unmarked) , state its measured Mortality after 4 days.
Out: 62.3%

In: Indicate its recorded Mortality after 4 days; the compound in question is Cc1ccc(OC(=O)N(C)[S+]([O-])c2ccccc2)c(C)c1 (centres unmarked)
Out: 83.3%

* * *

Tested on: smaller brown planthoppers (Loadelphax striatellus)
EXPERIMENT_DESCRIPTION: Residual effect on smaller brown planthoppers (Test Example 11)
Assay type: in vivo
EXPERIMENTAL_CONTEXT: 1000 fold dilute solution of 50 % emulsifiable concentrate; after 4 days (residual effect)
MEASURED_PARAMETER: Mortality after 4 days (%)
Report as a plain number; the unit % is understood.

In: Name the recorded Mortality after 4 days of the molecule listed here: Cc1ccc([S+]([O-])N(C)C(=O)Oc2ccc(C)c(C)c2)cc1 (stereo not drawn)
Out: 50.0

In: Return Mortality after 4 days for the following molecule: Cc1cc(C)cc(OC(=O)N(C)[S+]([O-])c2ccccc2)c1 (stereo not drawn)
Out: 100

In: Provide only the value of recorded Mortality after 4 days for CNC(=O)Oc1ccc(C)c(C)c1 [Meobal, 3,4-dimethylphenyl-N-methylcarbamate, reference compound]
Out: 53.2

In: Please list Mortality after 4 days recorded for the molecule Cc1ccc(OC(=O)N(C)[S+]([O-])c2ccc(Cl)cc2)cc1C (stereo not drawn)
Out: 85.0

In: Identify measured Mortality after 4 days corresponding to Cc1ccc(OC(=O)N(C)[S+]([O-])c2ccc([N+](=O)[O-])cc2)cc1C (stereo not drawn)
Out: 50.0

In: Please look at this molecule and report its Mortality after 4 days: Cc1cccc(OC(=O)N(C)[S+]([O-])c2ccccc2)c1C (stereo not drawn)
Out: 64.0

* * *

Test system: smaller brown planthoppers (Loadelphax striatellus)
EXPERIMENT_DESCRIPTION: Residual effect on smaller brown planthoppers (Test Example 11)
Format: in vivo
EXPERIMENTAL_CONTEXT: 1000 fold dilute solution of 50 % emulsifiable concentrate; after 7 days (residual effect)
MEASURED_PARAMETER: Mortality after 7 days (%)
Please respond with the number in % and leave the unit unwritten.

In: Provide Mortality after 7 days, recorded with smaller brown planthoppers (Loadelphax striatellus), of Cc1cc(C)cc(OC(=O)N(C)[S+]([O-])c2ccccc2)c1 (stereo not shown) [Compound 5]
Out: 45.0

In: Look up smaller brown planthoppers (Loadelphax striatellus) data: Mortality after 7 days of Cc1cccc(OC(=O)N(C)[S+]([O-])c2ccccc2)c1C (stereo not shown) [Compound 3] , then report it.
Out: 50.0

In: Report measured Mortality after 7 days on smaller brown planthoppers (Loadelphax striatellus); entry: Cc1ccc([S+]([O-])N(C)C(=O)Oc2ccc(C)c(C)c2)cc1 (stereo not shown) [Compound 8]
Out: 42.0

In: Param request: Mortality after 7 days | system smaller brown planthoppers (Loadelphax striatellus) | item CNC(=O)Oc1ccc(C)c(C)c1 [Meobal, 3,4-dimethylphenyl-N-methylcarbamate, reference compound]
Out: 10.0
